- System: VDR homodimer (NR concentration 270 nM)
- ASSAY DETAILS: PBM binding z-score (relative to random genomic background probes); higher = stronger binding; sequences stand for … in GC…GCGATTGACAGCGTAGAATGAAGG
Each item that follows carries a reported PBM binding z-score.
READOUT: PBM binding z-score

{"columns": ["SEQUENCE ENTRY", "RECORDED NUMBER"],
 "data": [
  ["TGACCAAGGTGAAGGTCGTTGATCCCTCTGTAGA", 0.744],
  ["CTCGACAGGTCGGTTGAGGTGAGTATACGGATAA", 0.012],
  ["TCGCCTAGGTCATGCGGGCCAGTATAGTGTCGGC", 0.82],
  ["CTCGAAAGGTTGTGCTCAGGTGAGTATACCAAAC", 0.0434],
  ["TGTCGAAGTTCAAAGGTAACGTAAGTATCCACAC", 2.72],
  ["CAAACTAGGTCACGGAGGTCAAAGTCCGTGCGTA", 5.9],
  ["TAGCCTAGGTCATGGGCCACTATACCACGCGAAC", 0.754],
  ["CGTGAAAGTTCAAGGTAACGTAACAGAAAGCAGC", 3.01],
  ["AGTATGAGGTTATTAAGATCAGGGAATTGCGGTC", 1.41],
  ["TCTAGCAGGCCAGAGGGTCTCTCAAGAGGTACGG", -0.83],
  ["AGAATGAGGTTATACGTAGAGCAGGGAAGAAAGT", 0.731],
  ["TCTGCTAGATCAACGATGGTCAGCTAATCTGCTA", -1.45]
]}
